Reference source: patent US8575178B2

Reported IC50 values are given for each entry in this list.
experimental_system: human TRPA1 (Homo sapiens, UniProt O75762)
Sequence (O75762 whole entry): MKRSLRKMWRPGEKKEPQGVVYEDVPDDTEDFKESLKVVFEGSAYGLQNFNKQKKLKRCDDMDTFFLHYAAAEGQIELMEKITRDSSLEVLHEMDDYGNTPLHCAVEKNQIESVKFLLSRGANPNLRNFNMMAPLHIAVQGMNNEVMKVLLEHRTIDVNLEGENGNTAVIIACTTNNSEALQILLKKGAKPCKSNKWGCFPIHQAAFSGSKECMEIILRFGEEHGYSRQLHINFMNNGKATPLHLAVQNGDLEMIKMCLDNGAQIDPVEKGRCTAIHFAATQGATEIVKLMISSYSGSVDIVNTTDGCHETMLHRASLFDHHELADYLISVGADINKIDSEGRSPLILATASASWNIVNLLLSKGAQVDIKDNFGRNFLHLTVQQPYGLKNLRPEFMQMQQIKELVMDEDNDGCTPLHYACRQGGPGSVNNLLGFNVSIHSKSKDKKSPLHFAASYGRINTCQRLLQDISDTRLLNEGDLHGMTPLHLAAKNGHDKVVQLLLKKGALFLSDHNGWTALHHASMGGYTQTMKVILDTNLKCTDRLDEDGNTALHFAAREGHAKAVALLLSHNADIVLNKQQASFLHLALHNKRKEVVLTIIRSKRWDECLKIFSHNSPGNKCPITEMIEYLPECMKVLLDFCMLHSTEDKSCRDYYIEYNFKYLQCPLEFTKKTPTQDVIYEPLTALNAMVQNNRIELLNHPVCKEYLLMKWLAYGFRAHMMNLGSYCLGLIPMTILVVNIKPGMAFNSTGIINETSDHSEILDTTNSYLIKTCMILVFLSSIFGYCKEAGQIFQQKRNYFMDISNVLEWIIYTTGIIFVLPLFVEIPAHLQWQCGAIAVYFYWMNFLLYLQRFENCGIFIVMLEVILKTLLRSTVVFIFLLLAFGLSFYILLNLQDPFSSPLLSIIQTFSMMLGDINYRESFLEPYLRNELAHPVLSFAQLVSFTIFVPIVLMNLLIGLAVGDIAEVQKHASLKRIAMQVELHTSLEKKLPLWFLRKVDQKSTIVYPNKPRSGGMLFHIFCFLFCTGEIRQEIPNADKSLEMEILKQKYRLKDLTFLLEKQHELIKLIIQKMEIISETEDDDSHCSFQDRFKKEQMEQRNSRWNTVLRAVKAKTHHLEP
experiment: 45Calcium uptake assay, inhibition of AITC induced calcium uptake in human TRPA1 expressing CHO cells
measurement_setup: AITC 30 μM

Consider the worked cases shown below.
In [3]: df
Out[3]:
                                   compound                       experimental_system  recorded_value
0  Cn1c(=O)c2c(CC(=O)Nc3nc(-c4ccc(F)cc4F)cs3)nsc2n(C)c1=O  human TRPA1 (Homo sapiens, UniProt O75762)       < 0.05 µM
1  Cn1c(=O)c2c(CC(=O)Nc3nc(-c4ccc(Cl)c(Cl)c4)cs3)nsc2n(C)c1=O  human TRPA1 (Homo sapiens, UniProt O75762)       < 0.05 µM
2  Cn1c(=O)c2c(CC(=O)Nc3nc(-c4ccc(OC(F)(F)F)c(F)c4)cs3)snc2n(C)c1=O  human TRPA1 (Homo sapiens, UniProt O75762)       < 0.05 µM
3  Cn1c(=O)c2c(CC(=O)Nc3nc(-c4ccc(Cl)cc4)cs3)snc2n(C)c1=O  human TRPA1 (Homo sapiens, UniProt O75762)       < 0.05 µM
4  Cn1c(=O)c2c(CC(=O)Nc3nc(-c4cc(F)c(C(F)(F)F)c(F)c4)cs3)nsc2n(C)c1=O  human TRPA1 (Homo sapiens, UniProt O75762)       < 0.05 µM
5  Cn1c(=O)c2c(CC(=O)Nc3nc(-c4ccc(Cl)c(C(F)(F)F)c4)cs3)snc2n(C)c1=O  human TRPA1 (Homo sapiens, UniProt O75762)       < 0.05 µM
6  Cn1c(=O)c2c(CC(=O)Nc3nc(-c4ccc(F)c(F)c4)cs3)nsc2n(C)c1=O  human TRPA1 (Homo sapiens, UniProt O75762)       < 0.05 µM
7  Cn1c(=O)c2c(CC(=O)Nc3nc(-c4ccc(F)c(C(F)(F)F)c4)cs3)nsc2n(C)c1=O  human TRPA1 (Homo sapiens, UniProt O75762)       < 0.05 µM

Incoming: So what IC50 did Cn1c(=O)c2c(CC(=O)Nc3nc(-c4cccc(C(F)(F)F)c4)cs3)snc2n(C)c1=O get with human TRPA1 (Homo sapiens, UniProt O75762)?
Outgoing: < 0.05 µM

Incoming: So what IC50 did Cn1c(=O)c2c(CC(=O)Nc3nc(-c4cccc(C(F)(F)F)c4F)cs3)snc2n(C)c1=O get with human TRPA1 (Homo sapiens, UniProt O75762)?
Outgoing: < 0.05 µM
